Origin of values: the supplement of paper PMC9112550

What shrunken log2 fold change was measured for each of the following?
- Test system: Escherichia coli TOP10
- ASSAY NOTES: shrunken log2 fold change of peptide-encoding DNA abundance (4.5 h post-induction vs induction); higher = less antimicrobial activity (less host growth inhibition)
- CONDITION NOTES: time post-induction: 4.5 h; library: site-saturation at positions 5, 18, 19, 20

Req: Reported shrunken log2 fold change for `RRIRGRPPRLPRPRPRPIAEPRP` : what is it?
Resp: 3.26

Req: Reported shrunken log2 fold change for `RRIRERPPRLPRPRPRPNVSPRP` : what is it?
Resp: -0.00968

Req: // shrunken log2 fold change lookup, key: `RRIRGRPPRLPRPRPRPQFEPRP`
Resp: 0.156

Req: Consider the sequence `RRIRTRPPRLPRPRPRPDSSPRP` and give its measured shrunken log2 fold change.
Resp: -0.00751

----------
- Tested on: Escherichia coli TOP10
- ASSAY NOTES: shrunken log2 fold change of peptide-encoding DNA abundance (4.5 h post-induction vs induction); higher = less antimicrobial activity (less host growth inhibition)
- CONDITION NOTES: time post-induction: 4.5 h; library: site-saturation at positions 5, 18, 19, 20
Would you kindly list shrunken log2 fold change for each of these sequences?

Req: Find the measured shrunken log2 fold change: item `RRIRMRPPRLPRPRPRPAAFPRP` , target or system Escherichia coli TOP10.
Resp: 0.503

Req: // lookup shrunken log2 fold change | system=Escherichia coli TOP10 | key= `RRIRRRPPRLPRPRPRPQRLPRP`
Resp: 0.124

Req: Item `RRIRMRPPRLPRPRPRPLAPPRP` with Escherichia coli TOP10 - shrunken log2 fold change?
Resp: 0.735

----------
- System: Escherichia coli TOP10
- ASSAY NOTES: shrunken log2 fold change of peptide-encoding DNA abundance (4.5 h post-induction vs induction); higher = less antimicrobial activity (less host growth inhibition)
- CONDITION NOTES: time post-induction: 4.5 h; library: site-saturation at positions 5, 18, 19, 20
Label Y when shrunken log2 fold change >= -0.08; otherwise N.

Req: Please indicate if the recorded shrunken log2 fold change for `RRIRHRPPRLPRPRPRPKGKPRP` meets or exceeds -0.08.
Resp: N

Req: Assess whether reported shrunken log2 fold change for `RRIRERPPRLPRPRPRPRCIPRP` sits at -0.08 or higher.
Resp: N

Req: State whether the measured shrunken log2 fold change reaches -0.08, counting equality as reaching it, for `RRIRARPPRLPRPRPRPWRLPRP`
Resp: Y

Req: Determine whether measured shrunken log2 fold change meets or exceeds -0.08 for `RRIRRRPPRLPRPRPRPIVPPRP`
Resp: Y

Req: Could you tell me if the measured shrunken log2 fold change of `RRIRHRPPRLPRPRPRPKLRPRP` reaches -0.08 or more?
Resp: N

Req: Say whether `RRIRGRPPRLPRPRPRPLAWPRP` shows shrunken log2 fold change of -0.08 or more.
Resp: Y

Req: Tell me whether shrunken log2 fold change is at least -0.08 here: `RRIRWRPPRLPRPRPRPMCIPRP`
Resp: N

----------
- Tested on: Escherichia coli TOP10
- ASSAY NOTES: shrunken log2 fold change of peptide-encoding DNA abundance (4.5 h post-induction vs induction); higher = less antimicrobial activity (less host growth inhibition)
- CONDITION NOTES: time post-induction: 4.5 h; library: site-saturation at positions 5, 18, 19, 20
Class definitions on shrunken log2 fold change: 1 (below -0.05), 2 (-0.05 to below 0.1), 3 (0.1 or more)

Req: Could you place `RRIRQRPPRLPRPRPRPVGWPRP` in its proper category? Many thanks.
Resp: 3

Req: Assign a category based on measured shrunken log2 fold change for `RRIRERPPRLPRPRPRPLNDPRP` and give only the class name.
Resp: 1

Req: Could you place `RRIRDRPPRLPRPRPRPCNHPRP` in its proper category? Many thanks.
Resp: 1

Req: Note: place this sequence into its band. Item: `RRIRSRPPRLPRPRPRPTTIPRP`
Resp: 3

Req: Dear colleague, I would appreciate it if you could identify the bin for `RRIRNRPPRLPRPRPRPTPYPRP` and reply at your convenience.
Resp: 1

Req: Place this sequence in its band: `RRIRPRPPRLPRPRPRPRIVPRP`
Resp: 2

Req: // return the class label for `RRIRFRPPRLPRPRPRPETSPRP`
Resp: 2

Req: Sort `RRIRCRPPRLPRPRPRPELMPRP` into one of the categories.
Resp: 3

Req: Returns: class label. Input: `RRIRIRPPRLPRPRPRPMTCPRP`
Resp: 2

Req: Given `RRIRVRPPRLPRPRPRPLREPRP` , name the class its shrunken log2 fold change places it in.
Resp: 3

----------
Assign shrunken log2 fold change to each entry below.
- System: Escherichia coli TOP10
- ASSAY NOTES: shrunken log2 fold change of peptide-encoding DNA abundance (4.5 h post-induction vs induction); higher = less antimicrobial activity (less host growth inhibition)
- CONDITION NOTES: time post-induction: 4.5 h; library: site-saturation at positions 5, 18, 19, 20
The answer should be a number; do not append a unit.

Req: What shrunken log2 fold change value was documented for this sequence, `RRIRGRPPRLPRPRPRPFVIPRP` ?
Resp: 0.215

Req: Given the entry `RRIRTRPPRLPRPRPRPNHPPRP` , report its measured shrunken log2 fold change.
Resp: 0.0542

Req: Which shrunken log2 fold change value belongs to `RRIRTRPPRLPRPRPRPWTQPRP` ?
Resp: 0.0256

Req: Look up shrunken log2 fold change: `RRIRLRPPRLPRPRPRPCTDPRP`
Resp: -0.199

Req: // query shrunken log2 fold change value for entry `RRIRGRPPRLPRPRPRPWWRPRP`
Resp: 0.626

Req: # input sequence: `RRIRNRPPRLPRPRPRPFVTPRP` ; wanted: its shrunken log2 fold change
Resp: -0.274

Req: Sample `RRIRVRPPRLPRPRPRPKSAPRP` — what was its shrunken log2 fold change?
Resp: 0.172

Req: Look at this sequence and give its reported shrunken log2 fold change. `RRIRRRPPRLPRPRPRPDYYPRP`
Resp: -0.0675

Req: I would be grateful if you could share the reported shrunken log2 fold change for `RRIRERPPRLPRPRPRPGPRPRP` .
Resp: 0.537

----------
- Test system: Escherichia coli TOP10;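 also: peptides expressed intracellularly from a pBAD plasmid library in pooled LB shake-flask culture, induced with 0.3% L-arabinose, DNA abundance read by NGS, three biological replicates, DESeq2 with apeglm shrinkage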
- ASSAY NOTES: shrunken log2 fold change of peptide-encoding DNA abundance (4.5 h post-induction vs induction); higher = less antimicrobial activity (less host growth inhibition)
- CONDITION NOTES: time post-induction: 4.5 h; library: site-saturation at positions 5, 18, 19, 20
Would you mind telling me the reported shrunken log2 fold change of each entry?
// no unit, no text: just the number

Req: Look at this sequence and give its reported shrunken log2 fold change. `RRIRSRPPRLPRPRPRPCLAPRP`
Resp: 0.0253

Req: Recorded shrunken log2 fold change for `RRIRQRPPRLPRPRPRPSIIPRP` , please?
Resp: -0.63

Req: Which shrunken log2 fold change value belongs to `RRIRRRPPRLPRPRPRPRALPRP` ?
Resp: 0.482

Req: Find the recorded shrunken log2 fold change belonging to `RRIRERPPRLPRPRPRPTQSPRP` and report it.
Resp: 0.329

Req: Item `RRIRQRPPRLPRPRPRPNVCPRP` has what recorded shrunken log2 fold change?
Resp: -0.575

Req: Recorded shrunken log2 fold change for `RRIRCRPPRLPRPRPRPAEVPRP` , please?
Resp: -0.106

Req: Field request: shrunken log2 fold change | item: `RRIRFRPPRLPRPRPRPPEHPRP`
Resp: 0.682

Req: Recorded shrunken log2 fold change for `RRIRARPPRLPRPRPRPVLWPRP` , please?
Resp: 2.26

Req: Form field: reported shrunken log2 fold change of `RRIRWRPPRLPRPRPRPAACPRP`
Resp: 0.0948

Req: Need shrunken log2 fold change of `RRIRSRPPRLPRPRPRPYFIPRP` , thanks.
Resp: -1.06

Req: Sample `RRIRQRPPRLPRPRPRPYSDPRP` — what was its shrunken log2 fold change?
Resp: -0.028

Req: What value of shrunken log2 fold change has been recorded for this entry: `RRIRQRPPRLPRPRPRPATSPRP`
Resp: 0.0218

Req: Reported shrunken log2 fold change for `RRIRHRPPRLPRPRPRPYVCPRP` : what is it?
Resp: 0.0124

Req: Given `RRIRWRPPRLPRPRPRPTDQPRP` , state its recorded shrunken log2 fold change.
Resp: 0.203

Req: Could you tell me which shrunken log2 fold change is on file for `RRIRWRPPRLPRPRPRPQACPRP` ?
Resp: 0.145

Req: For the sequence shown here, `RRIRCRPPRLPRPRPRPLQTPRP` , give the reported shrunken log2 fold change.
Resp: 0.443

Req: Give the measured shrunken log2 fold change of `RRIRYRPPRLPRPRPRPTPLPRP` .
Resp: 0.0136

Req: Entry `RRIRCRPPRLPRPRPRPIHHPRP` has what shrunken log2 fold change?
Resp: -0.481

Req: Which shrunken log2 fold change is reported for this sequence? `RRIRNRPPRLPRPRPRPCLDPRP`
Resp: -0.0122

Req: Recorded shrunken log2 fold change for `RRIRIRPPRLPRPRPRPIFKPRP` , please?
Resp: -0.226

Req: I am curious: what shrunken log2 fold change value has been reported for `RRIRYRPPRLPRPRPRPWPGPRP` ?
Resp: -0.15

Req: Query: shrunken log2 fold change; subject: `RRIRKRPPRLPRPRPRPGWCPRP`
Resp: 0.639

Req: I'd like to know its shrunken log2 fold change. The sequence in question is `RRIRERPPRLPRPRPRPGVLPRP`
Resp: -0.177

Req: # get_value(readout='shrunken log2 fold change', item= `RRIRQRPPRLPRPRPRPPYFPRP` )
Resp: 0.245

Req: Dear colleague, I am looking for the recorded shrunken log2 fold change of the following sequence: `RRIRRRPPRLPRPRPRPNHDPRP`
Resp: 0.196

Req: What shrunken log2 fold change value was documented for this sequence, `RRIRGRPPRLPRPRPRPEDTPRP` ?
Resp: 1.58

Req: What value of shrunken log2 fold change has been reported for the following sequence? `RRIRKRPPRLPRPRPRPKPRPRP`
Resp: 1.06

Req: shrunken log2 fold change lookup needed for `RRIRCRPPRLPRPRPRPSNPPRP` , thanks.
Resp: 0.442

Req: shrunken log2 fold change lookup needed for `RRIRIRPPRLPRPRPRPYYYPRP` , thanks.
Resp: -1.08

Req: What value of measured shrunken log2 fold change is listed for `RRIRPRPPRLPRPRPRPSKLPRP` ?
Resp: -0.224

Req: Look up shrunken log2 fold change: `RRIRCRPPRLPRPRPRPFCWPRP`
Resp: 0.31

Req: // shrunken log2 fold change lookup, key: `RRIRVRPPRLPRPRPRPCGDPRP`
Resp: -0.18

Req: Which shrunken log2 fold change value is on record for `RRIRDRPPRLPRPRPRPMLIPRP` ?
Resp: -0.0943

Req: Dear colleague, I am looking for the recorded shrunken log2 fold change of the following sequence: `RRIRDRPPRLPRPRPRPCWFPRP`
Resp: -0.0292

Req: Given `RRIRARPPRLPRPRPRPEQHPRP` , state its recorded shrunken log2 fold change.
Resp: 0.562

Req: Requested field: shrunken log2 fold change. Item: `RRIRIRPPRLPRPRPRPRAVPRP`
Resp: 0.314

Req: Given `RRIRRRPPRLPRPRPRPNMPPRP` , state its recorded shrunken log2 fold change.
Resp: -0.342

Req: Reported shrunken log2 fold change for `RRIRNRPPRLPRPRPRPSDVPRP` : what is it?
Resp: -1.29

Req: // query shrunken log2 fold change value for entry `RRIRPRPPRLPRPRPRPTYLPRP`
Resp: -0.113

Req: If you can, please state the reported shrunken log2 fold change value of `RRIRLRPPRLPRPRPRPKFNPRP` .
Resp: -0.437

Req: I am curious: what shrunken log2 fold change value has been reported for `RRIRMRPPRLPRPRPRPPPTPRP` ?
Resp: 1.97

Req: I have this sequence here, `RRIRPRPPRLPRPRPRPKICPRP` , and I need its recorded shrunken log2 fold change.
Resp: -0.0701

Req: Item `RRIRSRPPRLPRPRPRPEILPRP` has what recorded shrunken log2 fold change?
Resp: -0.0652

Req: May I ask what shrunken log2 fold change has been recorded for `RRIRFRPPRLPRPRPRPQGWPRP` ?
Resp: 0.466

Req: # query: shrunken log2 fold change of entry `RRIRQRPPRLPRPRPRPGGHPRP`
Resp: 0.201

Req: Please look up its shrunken log2 fold change: `RRIRRRPPRLPRPRPRPSCLPRP`
Resp: -0.172

Req: Name the recorded shrunken log2 fold change for `RRIRPRPPRLPRPRPRPQARPRP` .
Resp: 0.208

Req: Form field: reported shrunken log2 fold change of `RRIRVRPPRLPRPRPRPQDSPRP`
Resp: -0.069

Req: Reported shrunken log2 fold change for `RRIRTRPPRLPRPRPRPHWTPRP` : what is it?
Resp: -0.0902

Req: Bench note: what shrunken log2 fold change did `RRIRCRPPRLPRPRPRPMITPRP` show?
Resp: -0.0256

Req: Suppose we examine the sequence `RRIRCRPPRLPRPRPRPWDWPRP` ; what shrunken log2 fold change value has been reported?
Resp: 0.313

Req: What measured shrunken log2 fold change goes with `RRIRGRPPRLPRPRPRPENMPRP` ?
Resp: 0.325

Req: Bench note: what shrunken log2 fold change did `RRIRKRPPRLPRPRPRPGLSPRP` show?
Resp: 0.0644

Req: # query: shrunken log2 fold change of entry `RRIRGRPPRLPRPRPRPPELPRP`
Resp: 1.18

Req: What does the record list as shrunken log2 fold change for `RRIRHRPPRLPRPRPRPCDAPRP` ?
Resp: -0.0305

Req: Fill in: shrunken log2 fold change of `RRIRLRPPRLPRPRPRPWFLPRP` is ___
Resp: -0.449

Req: Given the sequence `RRIRKRPPRLPRPRPRPLYAPRP` , what is its reported shrunken log2 fold change?
Resp: 0.0609

Req: Which shrunken log2 fold change reading was recorded for the sequence `RRIRIRPPRLPRPRPRPDMYPRP` ?
Resp: -0.173

Req: Can you look up the measured shrunken log2 fold change of `RRIRGRPPRLPRPRPRPDTFPRP` for me?
Resp: 0.43
